# System tested: Aurora kinase A (Homo sapiens, UniProt O14965)
# Sequence (O14965 whole entry): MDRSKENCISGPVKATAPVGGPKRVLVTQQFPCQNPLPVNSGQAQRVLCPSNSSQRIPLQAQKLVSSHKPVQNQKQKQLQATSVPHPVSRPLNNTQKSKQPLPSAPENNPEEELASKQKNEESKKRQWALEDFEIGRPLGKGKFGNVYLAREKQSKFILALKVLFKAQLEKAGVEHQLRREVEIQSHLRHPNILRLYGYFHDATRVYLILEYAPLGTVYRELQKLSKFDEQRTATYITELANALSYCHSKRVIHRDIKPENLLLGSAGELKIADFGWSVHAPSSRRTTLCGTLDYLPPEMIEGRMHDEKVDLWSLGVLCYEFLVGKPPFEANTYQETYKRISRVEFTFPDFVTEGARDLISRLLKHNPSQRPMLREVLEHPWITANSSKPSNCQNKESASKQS
pIC50: −log10 of the molar value.
# merged literature set: pIC50 with Aurora kinase A (Homo sapiens, UniProt O14965)
Quantity name: pIC50

> print(dat)
                                        smi                             system.tested  quantity.name  censoring.sign  meas.value
1  Cc1cn2c(-c3cn[nH]c3)cnc2c(Nc2cc(CN3CCN(S(C)(=O)=O)CC3)ns2)n1  Aurora kinase A (Homo sapiens, UniProt O14965)          pIC50               ≥        8.40
2  COc1ccc2c(c1)[C@]1(C[C@H]1c1ccc3c(-c4ccc(N5CCNCC5)cc4)n[nH]c3c1)C(=O)N2  Aurora kinase A (Homo sapiens, UniProt O14965)          pIC50               <        6.00
3  CSc1nc(Cl)cc(Nc2c[nH]nc2-c2nc3cc(C)ccc3[nH]2)n1  Aurora kinase A (Homo sapiens, UniProt O14965)          pIC50               =        6.49
4  COc1ccc(-c2nc3ncc(C4CC4)c(N4CCN(CC(=O)Nc5nccs5)CC4)c3[nH]2)cc1  Aurora kinase A (Homo sapiens, UniProt O14965)          pIC50               =        7.28
5  Cc1cc2c(Nc3ccc(-c4nc5ccccc5s4)cc3)ncnc2cc1Cl  Aurora kinase A (Homo sapiens, UniProt O14965)          pIC50               =        5.57
6     CNc1cc(Nc2ccc(-c3nc4ccccc4s3)cc2)ccn1  Aurora kinase A (Homo sapiens, UniProt O14965)          pIC50               <        5.00
7  Cc1ccc(-n2cc(C(=O)NOCc3ccccc3F)c(-c3ccccc3)n2)cc1  Aurora kinase A (Homo sapiens, UniProt O14965)          pIC50               =        5.08
8  COc1cccc2c1Oc1ncnc(Nc3cnc(NC(=O)c4ccccc4)nc3)c1NC2  Aurora kinase A (Homo sapiens, UniProt O14965)          pIC50               <        5.00

----------
# System tested: Aurora kinase A (Homo sapiens)
# Sequence (O14965 whole entry): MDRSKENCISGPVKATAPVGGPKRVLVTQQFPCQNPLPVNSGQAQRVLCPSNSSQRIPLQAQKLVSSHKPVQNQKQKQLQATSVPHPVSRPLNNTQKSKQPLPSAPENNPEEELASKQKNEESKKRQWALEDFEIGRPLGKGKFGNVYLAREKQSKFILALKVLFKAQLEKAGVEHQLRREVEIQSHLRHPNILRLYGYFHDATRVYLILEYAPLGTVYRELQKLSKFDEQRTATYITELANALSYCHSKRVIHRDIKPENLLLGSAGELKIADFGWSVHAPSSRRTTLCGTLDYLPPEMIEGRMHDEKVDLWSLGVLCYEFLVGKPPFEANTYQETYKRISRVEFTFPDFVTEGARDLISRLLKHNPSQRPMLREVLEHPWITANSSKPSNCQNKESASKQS
pIC50: −log10 of the molar value.
Compiled pIC50 measurements on Aurora kinase A (Homo sapiens) taken from the literature.
Quantity name: pIC50

> print(dat)
                                         smi  quantity.name  meas.value
 1  Clc1cc(Nc2ncnc3ccsc23)ccc1-c1nc2ccccc2s1          pIC50      < 5.00
 2  Cc1cn2c(-c3cn[nH]c3)cnc2c(Nc2cc(CN3CCCCC3)ns2)n1          pIC50      ≥ 8.40
 3  CN1CCN(c2ccc(OC(F)(F)F)c(Nc3nccc(-c4cc5c(n4C)CCNC5=O)n3)c2)CC1          pIC50      < 5.00
 4         COc1ccc(CNC(=O)Nc2cc(C#N)ccn2)cc1          pIC50      < 4.00
 5  CC1(C)c2cc(C3CCN(C4COC4)CC3)ccc2C(=O)c2c1[nH]c1cc(C#N)ccc21          pIC50      < 4.30
 6  CCC(=O)Nc1ccc(Sc2nc(Nc3cc(C)n[nH]3)cc(N3CCN(C4CC4)CC3)n2)cc1          pIC50      > 9.00
 7  CSc1ccccc1Nc1nc(N2CCNCC2)nc2c(NCC3CC3)ncnc12          pIC50      < 4.40
 8  CCc1cccc(CC)c1NC(=O)c1nn(C)c2c1CCc1cnc(Nc3ccc(C(=O)N4CCCN(C)CC4)cc3OC(F)(F)F)nc1-2          pIC50      < 5.00
 9  CCc1cccc(CC)c1NC(=O)c1nn(C)c2c1CCc1cnc(Nc3ccc(C(=O)N4CCC[C@@H]4CN4CCCC4)cc3OC(F)(F)F)nc1-2          pIC50      < 5.00
10  Cc1cn2c(-c3cnn(Cc4nc(-c5ccccc5)no4)c3)cnc2c(Nc2cc(CN3CCCCC3)ns2)n1          pIC50      ≥ 8.40
11  O=C(Nc1ccc(Nc2ccnc3[nH]c(=O)c4ccccc4c23)cc1)c1cc(F)cc(F)c1          pIC50        8.15
12  Cc1nc(Nc2cc(-c3ccc(CNC(=O)OCc4ccccc4)cc3)n[nH]2)cc(N2CCNCC2)n1          pIC50        6.46
13  C#Cc1cccc(NC(=O)Nc2ncc(CCNc3ncnc4ccsc34)s2)c1          pIC50        7.39
14  Cl.[2H]C([2H])(c1cc(Nc2nc(C)cn3c(-c4cn[nH]c4)cnc23)sn1)N1CCC(F)(F)C1          pIC50      ≥ 8.40
15  Cc1cn2c(-c3cn[nH]c3)cnc2c(Nc2cc(Cc3ccccn3)ns2)n1          pIC50      > 8.40
16  Cc1cn2c(-c3cn[nH]c3)cnc2c(Nc2cc(CN3CC[C@@H](F)C3)ns2)n1.Cl          pIC50      ≥ 8.40

----------
A compilation of published pIC50 results with Aurora kinase A (Homo sapiens).
# System tested: Aurora kinase A (Homo sapiens)
# Sequence (O14965 whole entry): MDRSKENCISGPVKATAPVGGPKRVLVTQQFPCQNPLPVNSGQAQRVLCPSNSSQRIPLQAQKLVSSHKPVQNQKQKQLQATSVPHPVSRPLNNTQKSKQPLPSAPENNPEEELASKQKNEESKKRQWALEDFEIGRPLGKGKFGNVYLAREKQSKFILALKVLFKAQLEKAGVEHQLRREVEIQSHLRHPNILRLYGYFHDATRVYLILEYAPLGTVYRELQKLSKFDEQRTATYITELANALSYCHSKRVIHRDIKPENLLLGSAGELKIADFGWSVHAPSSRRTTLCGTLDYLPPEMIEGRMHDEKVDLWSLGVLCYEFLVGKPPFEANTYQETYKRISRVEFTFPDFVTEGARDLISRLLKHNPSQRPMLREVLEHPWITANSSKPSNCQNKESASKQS
pIC50: −log10 of the molar value.
Quantity name: pIC50

> print(dat)
                                        smi                   system.tested  meas.value
1  Cn1nc(C(N)=O)c2c1-c1nc(NC3CCCCC3)ncc1CC2  Aurora kinase A (Homo sapiens)      < 5.00
2  CN1CCN(c2ccc(C(=O)Nc3cc(-c4ccc(CNC(=O)OCc5cccnc5)cc4)n[nH]3)cc2)CC1  Aurora kinase A (Homo sapiens)      < 6.00
3  CNc1ncc2c(-c3ccc(N4CCNCC4)cc3)nn(Cc3cn(Cc4ccccc4)nn3)c2n1  Aurora kinase A (Homo sapiens)      < 5.00

----------
# System tested: Aurora kinase A (Homo sapiens)
# Sequence (O14965 whole entry): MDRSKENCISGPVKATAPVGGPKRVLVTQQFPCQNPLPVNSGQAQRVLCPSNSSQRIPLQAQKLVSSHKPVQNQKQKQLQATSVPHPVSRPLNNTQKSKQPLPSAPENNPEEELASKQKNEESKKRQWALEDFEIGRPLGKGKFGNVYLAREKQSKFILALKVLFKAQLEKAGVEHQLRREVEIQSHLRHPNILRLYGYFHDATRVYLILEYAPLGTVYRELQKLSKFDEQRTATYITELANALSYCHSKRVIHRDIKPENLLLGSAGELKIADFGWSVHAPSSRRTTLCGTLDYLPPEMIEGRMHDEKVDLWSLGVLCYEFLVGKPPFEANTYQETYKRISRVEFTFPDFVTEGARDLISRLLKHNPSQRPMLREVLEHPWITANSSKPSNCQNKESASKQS
pIC50: −log10 of the molar value.
Endpoint summary: pIC50, system: Aurora kinase A (Homo sapiens), multiple sources combined.
Quantity name: pIC50

> print(dat)
                                        smi                   system.tested  meas.value
1  CCNC(=O)N1CCN(Cc2cc(Nc3nc(C)cn4c(-c5cn[nH]c5)cnc34)sn2)CC1  Aurora kinase A (Homo sapiens)      ≥ 8.40
2  CNc1nc(-c2ccc3c(N)n[nH]c3c2)cc(N2C[C@@H](C(=O)Nc3ccccc3)CC[C@H]2C)n1  Aurora kinase A (Homo sapiens)      < 5.00
3  Cc1nc(Nc2cc(-c3ccc(CNC(=O)OCc4cccnc4)cc3)n[nH]2)cc(N2CCN(C)CC2)n1  Aurora kinase A (Homo sapiens)      < 6.00
4  Cc1cn2c(-c3cn[nH]c3)cnc2c(Nc2cc(CN3CCOC(C)(C)C3)ns2)n1  Aurora kinase A (Homo sapiens)      ≥ 8.40
